assay.target: AvGAPDH (Fannyhessea vaginae, UniProt F1T6A5)
Construct: recombinant, expressed and purified by similar protocols as previously described, homotetramer
Sequence (F1T6A5 entry or part of it): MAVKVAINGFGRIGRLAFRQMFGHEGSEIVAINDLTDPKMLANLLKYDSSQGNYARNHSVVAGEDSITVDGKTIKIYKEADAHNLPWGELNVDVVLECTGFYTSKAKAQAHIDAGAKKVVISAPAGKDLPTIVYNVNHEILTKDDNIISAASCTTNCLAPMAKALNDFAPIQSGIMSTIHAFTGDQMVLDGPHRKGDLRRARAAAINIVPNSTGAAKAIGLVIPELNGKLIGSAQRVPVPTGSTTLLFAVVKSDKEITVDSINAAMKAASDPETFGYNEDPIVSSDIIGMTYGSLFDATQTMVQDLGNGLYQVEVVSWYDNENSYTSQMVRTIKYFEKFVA
readout.name: pKi
Note on pKi: it is the negative log10 of concentration, concentration in mol/L.

Recorded pKi for COc1cc(/C=C/C(=O)CC(=O)/C=C/c2ccc(O)c(OC)c2)ccc1O [curcumin] , please?
4.41

Recorded pKi for CCCCCCCCCCCCCCCc1cccc(O)c1C(=O)O [anacardic acid, 6-pentadecylsalicylic acid] , please?
5.90
